test system: Erythrocyte; experiment: Hemolytic activity in mouse erythrocytes assessed as concentration required to cause 10% hemolysis incubated for 1 hr; format: toxicity, cell-based
Measured MHC by item
# value in µM; strip the unit string

Use these answered entries as a reference point.
NCCCC[C@@H](NC(=O)[C@H](N)Cc1c[nH]c2ccccc12)C(=O)N[C@H](Cc1c[nH]c2ccccc12)C(=O)N[C@H](CCCCN)C(=O)N[C@H](Cc1c[nH]c2ccccc12)C(=O)N1CCC[C@H]1C(=O)NCC(=O)N[C@H](Cc1c[nH]c2ccccc12)C(=O)N[C@H](CCCCN)C(=O)N[C@H](Cc1c[nH]c2ccccc12)C(=O)N[C@H](CCCCN)C(=O)N[C@H](Cc1c[nH]c2ccccc12)C(N)=O    46
NCCCC[C@@H](NC(=O)[C@H](N)Cc1c[nH]c2ccccc12)C(=O)N[C@H](Cc1c[nH]c2ccccc12)C(=O)N[C@H](CCCCN)C(=O)N[C@H](Cc1c[nH]c2ccccc12)C(=O)NCC(=O)NCC(=O)N[C@H](Cc1c[nH]c2ccccc12)C(=O)N[C@H](CCCCN)C(=O)N[C@H](Cc1c[nH]c2ccccc12)C(=O)N[C@H](CCCCN)C(=O)N[C@H](Cc1c[nH]c2ccccc12)C(N)=O    66.3

Now let's try a different one.
Ask: Lookup: MHC / Erythrocyte / "NCCCC[C@@H](NC(=O)[C@H](N)Cc1c[nH]c2ccccc12)C(=O)N[C@H](Cc1c[nH]c2ccccc12)C(=O)N[C@H](CCCCN)C(=O)N[C@H](Cc1c[nH]c2ccccc12)C(=O)N1CCC[C@@H]1C(=O)NCC(=O)N[C@H](Cc1c[nH]c2ccccc12)C(=O)N[C@H](CCCCN)C(=O)N[C@H](Cc1c[nH]c2ccccc12)C(=O)N[C@H](CCCCN)C(=O)N[C@H](Cc1c[nH]c2ccccc12)C(N)=O"
Result: 147.6

----------
Measured MBC by item
tested on: Escherichia coli; assay: Bactericidal activity against Escherichia coli ATCC 25922 incubated for 18 hrs by broth microdilution method; assay type: functional
# value in µM; strip the unit string

Use these answered entries as a reference point.
NCCCC[C@@H](N)C(=O)N[C@H](Cc1c[nH]c2ccccc12)C(=O)N[C@H](CCCCN)C(=O)N[C@H](Cc1c[nH]c2ccccc12)C(=O)N[C@H](CCCCN)C(=O)N1CCC[C@@H]1C(=O)NCC(=O)N[C@H](CCCCN)C(=O)N[C@H](Cc1c[nH]c2ccccc12)C(=O)N[C@H](CCCCN)C(=O)N[C@H](Cc1c[nH]c2ccccc12)C(=O)N[C@H](CCCCN)C(N)=O    8
NCCCC[C@@H](NC(=O)[C@H](N)Cc1c[nH]c2ccccc12)C(=O)N[C@H](Cc1c[nH]c2ccccc12)C(=O)N[C@H](CCCCN)C(=O)N[C@H](Cc1c[nH]c2ccccc12)C(=O)NCC(=O)NCC(=O)N[C@H](Cc1c[nH]c2ccccc12)C(=O)N[C@H](CCCCN)C(=O)N[C@H](Cc1c[nH]c2ccccc12)C(=O)N[C@H](CCCCN)C(=O)N[C@H](Cc1c[nH]c2ccccc12)C(N)=O    8
NCCCC[C@@H](N)C(=O)N[C@H](Cc1c[nH]c2ccccc12)C(=O)N[C@H](CCCCN)C(=O)N[C@H](Cc1c[nH]c2ccccc12)C(=O)N[C@H](CCCCN)C(=O)N1CCC[C@@H]1C(=O)N1CCC[C@H]1C(=O)N[C@H](CCCCN)C(=O)N[C@H](Cc1c[nH]c2ccccc12)C(=O)N[C@H](CCCCN)C(=O)N[C@H](Cc1c[nH]c2ccccc12)C(=O)N[C@H](CCCCN)C(N)=O    8

Now let's try a different one.
Ask: # lookup: MBC of "NCCCC[C@@H](NC(=O)[C@H](N)Cc1c[nH]c2ccccc12)C(=O)N[C@H](Cc1c[nH]c2ccccc12)C(=O)N[C@H](CCCCN)C(=O)N[C@H](Cc1c[nH]c2ccccc12)C(=O)N1CCC[C@@H]1C(=O)NCC(=O)N[C@H](Cc1c[nH]c2ccccc12)C(=O)N[C@H](CCCCN)C(=O)N[C@H](Cc1c[nH]c2ccccc12)C(=O)N[C@H](CCCCN)C(=O)N[C@H](Cc1c[nH]c2ccccc12)C(N)=O"
Result: 4

----------
test system: Erythrocyte; experiment: Hemolytic activity in mouse erythrocytes assessed as concentration required to cause 10% hemolysis incubated for 1 hr; assay type: toxicity, cell-based
Measured MHC by item

NCCCC[C@@H](NC(=O)[C@H](N)Cc1c[nH]c2ccccc12)C(=O)N[C@H](Cc1c[nH]c2ccccc12)C(=O)N[C@H](CCCCN)C(=O)N[C@H](Cc1c[nH]c2ccccc12)C(=O)N[C@@H](CC(N)=O)C(=O)NCC(=O)N[C@H](Cc1c[nH]c2ccccc12)C(=O)N[C@H](CCCCN)C(=O)N[C@H](Cc1c[nH]c2ccccc12)C(=O)N[C@H](CCCCN)C(=O)N[C@H](Cc1c[nH]c2ccccc12)C(N)=O    > 512 µM
NCCCC[C@@H](N)C(=O)N[C@H](Cc1c[nH]c2ccccc12)C(=O)N[C@H](CCCCN)C(=O)N[C@H](Cc1c[nH]c2ccccc12)C(=O)N[C@H](CCCCN)C(=O)NCC(=O)NCC(=O)N[C@H](CCCCN)C(=O)N[C@H](Cc1c[nH]c2ccccc12)C(=O)N[C@H](CCCCN)C(=O)N[C@H](Cc1c[nH]c2ccccc12)C(=O)N[C@H](CCCCN)C(N)=O    > 512 µM
NCCCC[C@@H](N)C(=O)N[C@H](Cc1c[nH]c2ccccc12)C(=O)N[C@H](CCCCN)C(=O)N[C@H](Cc1c[nH]c2ccccc12)C(=O)N[C@H](CCCCN)C(=O)N1CCC[C@@H]1C(=O)NCC(=O)N[C@H](CCCCN)C(=O)N[C@H](Cc1c[nH]c2ccccc12)C(=O)N[C@H](CCCCN)C(=O)N[C@H](Cc1c[nH]c2ccccc12)C(=O)N[C@H](CCCCN)C(N)=O    > 512 µM

Ask: # lookup: MHC of "NCCCC[C@@H](N)C(=O)N[C@H](Cc1c[nH]c2ccccc12)C(=O)N[C@H](CCCCN)C(=O)N[C@H](Cc1c[nH]c2ccccc12)C(=O)N[C@H](CCCCN)C(=O)N1CCC[C@@H]1C(=O)N1CCC[C@H]1C(=O)N[C@H](CCCCN)C(=O)N[C@H](Cc1c[nH]c2ccccc12)C(=O)N[C@H](CCCCN)C(=O)N[C@H](Cc1c[nH]c2ccccc12)C(=O)N[C@H](CCCCN)C(N)=O"
Result: > 512 µM

Ask: # lookup: MHC of "NCCCC[C@@H](N)C(=O)N[C@H](Cc1c[nH]c2ccccc12)C(=O)N[C@H](CCCCN)C(=O)N[C@H](Cc1c[nH]c2ccccc12)C(=O)N[C@H](CCCCN)C(=O)N1CCC[C@H]1C(=O)NCC(=O)N[C@H](CCCCN)C(=O)N[C@H](Cc1c[nH]c2ccccc12)C(=O)N[C@H](CCCCN)C(=O)N[C@H](Cc1c[nH]c2ccccc12)C(=O)N[C@H](CCCCN)C(N)=O"
Result: > 512 µM

Ask: # lookup: MHC of "NCCCC[C@@H](NC(=O)[C@H](N)Cc1c[nH]c2ccccc12)C(=O)N[C@H](Cc1c[nH]c2ccccc12)C(=O)N[C@H](CCCCN)C(=O)N[C@H](Cc1c[nH]c2ccccc12)C(=O)N1CCC[C@@H]1C(=O)N1CCC[C@H]1C(=O)N[C@H](Cc1c[nH]c2ccccc12)C(=O)N[C@H](CCCCN)C(=O)N[C@H](Cc1c[nH]c2ccccc12)C(=O)N[C@H](CCCCN)C(=O)N[C@H](Cc1c[nH]c2ccccc12)C(N)=O"
Result: 243.5 µM

----------
assay: Elimination half life in Sprague-Dawley rat at 1 mg/kg, iv measured upto 120 mins by LC-MS analysis; assay type: ADME, organism-based; details: in vivo, read-out: beta t1/2
property.name: half-life (min)
# value in min; strip the unit string

Ask: # lookup: half-life of "NCCCC[C@@H](NC(=O)[C@H](N)Cc1c[nH]c2ccccc12)C(=O)N[C@H](Cc1c[nH]c2ccccc12)C(=O)N[C@H](CCCCN)C(=O)N[C@H](Cc1c[nH]c2ccccc12)C(=O)N[C@@H](CC(N)=O)C(=O)NCC(=O)N[C@H](Cc1c[nH]c2ccccc12)C(=O)N[C@H](CCCCN)C(=O)N[C@H](Cc1c[nH]c2ccccc12)C(=O)N[C@H](CCCCN)C(=O)N[C@H](Cc1c[nH]c2ccccc12)C(N)=O"
Result: 11.4

----------
test system: Escherichia coli; assay: Bactericidal activity against Escherichia coli ATCC 25922 incubated for 18 hrs by broth microdilution method; type: functional
Measured MBC by item
# value in µM; strip the unit string

Use these answered entries as a reference point.
NCCCC[C@@H](NC(=O)[C@H](N)Cc1c[nH]c2ccccc12)C(=O)N[C@H](Cc1c[nH]c2ccccc12)C(=O)N[C@H](CCCCN)C(=O)N[C@H](Cc1c[nH]c2ccccc12)C(=O)N1CCC[C@H]1C(=O)NCC(=O)N[C@H](Cc1c[nH]c2ccccc12)C(=O)N[C@H](CCCCN)C(=O)N[C@H](Cc1c[nH]c2ccccc12)C(=O)N[C@H](CCCCN)C(=O)N[C@H](Cc1c[nH]c2ccccc12)C(N)=O    8
NCCCC[C@@H](NC(=O)[C@H](N)Cc1c[nH]c2ccccc12)C(=O)N[C@H](Cc1c[nH]c2ccccc12)C(=O)N[C@H](CCCCN)C(=O)N[C@H](Cc1c[nH]c2ccccc12)C(=O)N[C@@H](CC(N)=O)C(=O)NCC(=O)N[C@H](Cc1c[nH]c2ccccc12)C(=O)N[C@H](CCCCN)C(=O)N[C@H](Cc1c[nH]c2ccccc12)C(=O)N[C@H](CCCCN)C(=O)N[C@H](Cc1c[nH]c2ccccc12)C(N)=O    8
NCCCC[C@@H](N)C(=O)N[C@H](Cc1c[nH]c2ccccc12)C(=O)N[C@H](CCCCN)C(=O)N[C@H](Cc1c[nH]c2ccccc12)C(=O)N[C@H](CCCCN)C(=O)NCC(=O)NCC(=O)N[C@H](CCCCN)C(=O)N[C@H](Cc1c[nH]c2ccccc12)C(=O)N[C@H](CCCCN)C(=O)N[C@H](Cc1c[nH]c2ccccc12)C(=O)N[C@H](CCCCN)C(N)=O    8
NCCCC[C@@H](N)C(=O)N[C@H](Cc1c[nH]c2ccccc12)C(=O)N[C@H](CCCCN)C(=O)N[C@H](Cc1c[nH]c2ccccc12)C(=O)N[C@H](CCCCN)C(=O)N[C@@H](CC(N)=O)C(=O)NCC(=O)N[C@H](CCCCN)C(=O)N[C@H](Cc1c[nH]c2ccccc12)C(=O)N[C@H](CCCCN)C(=O)N[C@H](Cc1c[nH]c2ccccc12)C(=O)N[C@H](CCCCN)C(N)=O    8

Ask: # lookup: MBC of "NCCCC[C@@H](NC(=O)[C@H](N)Cc1c[nH]c2ccccc12)C(=O)N[C@H](Cc1c[nH]c2ccccc12)C(=O)N[C@H](CCCCN)C(=O)N[C@H](Cc1c[nH]c2ccccc12)C(=O)N1CCC[C@@H]1C(=O)N1CCC[C@H]1C(=O)N[C@H](Cc1c[nH]c2ccccc12)C(=O)N[C@H](CCCCN)C(=O)N[C@H](Cc1c[nH]c2ccccc12)C(=O)N[C@H](CCCCN)C(=O)N[C@H](Cc1c[nH]c2ccccc12)C(N)=O"
Result: 4

Ask: # lookup: MBC of "NCCCC[C@@H](N)C(=O)N[C@H](Cc1c[nH]c2ccccc12)C(=O)N[C@H](CCCCN)C(=O)N[C@H](Cc1c[nH]c2ccccc12)C(=O)N[C@H](CCCCN)C(=O)N1CCC[C@H]1C(=O)NCC(=O)N[C@H](CCCCN)C(=O)N[C@H](Cc1c[nH]c2ccccc12)C(=O)N[C@H](CCCCN)C(=O)N[C@H](Cc1c[nH]c2ccccc12)C(=O)N[C@H](CCCCN)C(N)=O"
Result: 16
